Record form. Attribute: purified protein yield per well. Fill in for each entry.
TEST SUMMARY: purified protein yield per well (BCA); higher = higher soluble expression

>  <RESIDUE SEQUENCE>
ATTAGTFGGVAISPGYTASESTIAWLGPRIASQGFVVITFNTNSRYDQPASRGDQLLAALDYLTGSSAVRARVDASRLAVMGHSMGGGGALEAAKDRPSLQAAIPLTGWNTDKTWPEVRTPTLVIGAENDSVAPVGSHSIPFYNSLTSAPERAYLELNNASHFAPNSPNTDIASSSIAWLKRYVDDDTRYTQFLCPGPSVSAFGSVSDYRATCPM [TEP154]

>  <purified protein yield per well>
< 25 µg

$$$$

Now for the sequence whose purified protein yield per well we want.
Reported purified protein yield per well for ATTSFRRGPDPSAASIRAANGPFAIAKTTVARQAGFGGGDIYAPTDTSRGTFGAVAIAPGFTATRSSLAWLAPRIASQGFVVFNIDTLTTSDQPAQRGRELLAALDFLTGSSTARAKIDRTRLAVMGHSMGGGGTLEAAKARPSLKAAVPLTPWDLTKNFATVKVPTMIIGAQSDTIAPPSRFSDQFFASLPAATNKGYLELAGASHFAPNIPNPTIASTSIAWLKRFVDGDTRFEQFLCPGPSSNGISEYQTNCPHKA [ESM129] was < 25 µg

Where do the numbers come from? From the supplement of paper PMC12455559.
